molecular target: Ubiquitin carboxyl-terminal hydrolase 28 (Homo sapiens) (UniProt Q96RU2); experiment: Concentration-response biochemical assay confirming initial hits as inhibitors of ubiquitin-specific protease 28 (AID 1645866); details: purified USP28, ubiquitin-rhodamine fluorescence, 30 min;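 active means in confirmatory dose-response testing, peak deubiquitinase inhibition of 30% or more; inactive means the rest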
Sequence (Q96RU2 whole entry, looked up): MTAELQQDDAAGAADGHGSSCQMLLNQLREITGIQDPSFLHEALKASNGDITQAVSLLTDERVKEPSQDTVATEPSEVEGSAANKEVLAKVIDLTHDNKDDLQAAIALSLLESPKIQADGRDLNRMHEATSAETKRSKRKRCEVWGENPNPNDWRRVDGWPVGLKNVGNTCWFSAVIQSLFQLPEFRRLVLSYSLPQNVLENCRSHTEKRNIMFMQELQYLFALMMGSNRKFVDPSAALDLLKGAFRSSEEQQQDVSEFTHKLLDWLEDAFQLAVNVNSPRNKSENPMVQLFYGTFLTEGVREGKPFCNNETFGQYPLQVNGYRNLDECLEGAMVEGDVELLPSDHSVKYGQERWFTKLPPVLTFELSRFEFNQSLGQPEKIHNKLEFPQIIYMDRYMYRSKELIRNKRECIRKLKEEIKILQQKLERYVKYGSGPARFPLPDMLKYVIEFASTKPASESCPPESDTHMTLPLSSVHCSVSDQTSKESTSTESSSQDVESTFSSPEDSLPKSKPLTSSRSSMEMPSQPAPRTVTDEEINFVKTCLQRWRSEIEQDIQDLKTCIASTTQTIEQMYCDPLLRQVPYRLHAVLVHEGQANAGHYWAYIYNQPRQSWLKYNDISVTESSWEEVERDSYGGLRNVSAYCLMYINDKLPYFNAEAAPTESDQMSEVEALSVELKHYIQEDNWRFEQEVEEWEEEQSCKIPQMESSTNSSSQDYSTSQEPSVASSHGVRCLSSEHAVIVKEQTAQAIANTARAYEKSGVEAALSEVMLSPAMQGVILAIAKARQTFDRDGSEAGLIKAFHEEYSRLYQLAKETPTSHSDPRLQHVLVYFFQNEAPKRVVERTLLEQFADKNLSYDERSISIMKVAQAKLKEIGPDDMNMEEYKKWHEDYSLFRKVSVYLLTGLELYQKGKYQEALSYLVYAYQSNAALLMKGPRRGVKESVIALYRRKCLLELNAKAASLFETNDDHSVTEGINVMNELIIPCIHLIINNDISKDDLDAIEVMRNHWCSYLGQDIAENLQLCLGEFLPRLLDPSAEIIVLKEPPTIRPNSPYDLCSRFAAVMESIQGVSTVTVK
Would you mind answering with one of these outcomes? 1 (active), 0 (inactive)

Called result for Cc1ccc(C)c(NC(=O)CCc2nc(CSc3nc4ccccc4o3)no2)c1
1

Hi team, can someone confirm the assay call for Cc1ccc2[nH]c(=O)c(CN(CC3COCCO3)S(=O)(=O)c3ccc(F)cc3)cc2c1 (stereo not given) ?
1

----------
target: Ubiquitin carboxyl-terminal hydrolase 28 (Homo sapiens) (UniProt Q96RU2); assay: Concentration-response biochemical assay confirming initial hits as inhibitors of ubiquitin-specific protease 28 (AID 1645866); conditions: purified USP28, ubiquitin-rhodamine fluorescence, 30 min
The source made the active and inactive calls.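 Rule for the calls: active = in confirmatory dose-response testing, peak deubiquitinase inhibition of 30% or more; inactive = the rest.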
measuredParameter: IC50

Below, 2 compounds whose answers are already recorded.
compound | IC50
CC1CCCN(CCCNC(=O)c2ccc(N3CCc4ccccc43)s2)C1 (stereo unspecified) | 18.5 µM
Nc1ncnc2c1ncn2[C@@H]1O[C@H](CO)C[C@@H]1O | 26.4 µM

// Oc1ccc(Br)cc1CNc1ccc(F)cc1 : IC50 value = 18.3 µM

Measured IC50 of COc1ccccc1NC(=O)c1cc(-c2ccccn2)nc2ccccc12 : 27.4 µM

// IC50 value for COc1ccc(-n2c(=O)c(CCC(=O)O)nc3ccccc32)cc1 : > 50 µM (inactive)

Recorded result, NC(=O)C1(N2CCCCC2)CCN(C(=O)c2[nH]nc3c2CCc2ccccc2-3)CC1 , IC50: > 50 µM (inactive)

----------
target: Ubiquitin carboxyl-terminal hydrolase 28 (Homo sapiens) (UniProt Q96RU2); assay: Concentration-response biochemical assay confirming initial hits as inhibitors of ubiquitin-specific protease 28 (AID 1645866); conditions: purified USP28, ubiquitin-rhodamine fluorescence, 30 min
The source made the active and inactive calls.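 Rule for the calls: active = in confirmatory dose-response testing, peak deubiquitinase inhibition of 30% or more; inactive = the rest.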
Answer with one of the outcomes active, inactive

compound | classAssignment
CN1C(=O)COc2ccc(NC(=O)c3cc(-c4ccccc4)on3)cc21 | inactive
COC(=O)c1c(C)[nH]c(C(=O)C(C)OC(=O)CCC2CCCC2)c1C (stereo unspecified) | active
COc1ccc(/C=C/C(=O)Nc2ccc3c(c2)OCCO3)cc1Br | active

Per the assay record, what outcome was assigned to O=C(COc1ccc(S(=O)(=O)N2CCOCC2)cc1)N1CCC(Cc2ccccc2)CC1 ?
active

In this assay, the call recorded for COc1cccc(/C=C/C(=O)Nc2ccc(N3CCOCC3)cc2)c1OC was what?
active

Per the assay record, what outcome was assigned to CC1CCc2c(sc3nc(CC#N)[nH]c(=O)c23)C1 (stereo unspecified) ?
inactive

----------
target: Ubiquitin carboxyl-terminal hydrolase 28 (Homo sapiens) (UniProt Q96RU2); assay: Concentration-response biochemical assay confirming initial hits as inhibitors of ubiquitin-specific protease 28 (AID 1645866); conditions: purified USP28, ubiquitin-rhodamine fluorescence, 30 min
Active and inactive are the calls of the source.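 Rule for the calls: active = in confirmatory dose-response testing, peak deubiquitinase inhibition of 30% or more; inactive = the rest.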
Respond with a class label; see active, inactive

Known results for molecules:
molecule | measuredOn | classAssignment
O=C(NCc1ccc(-c2nc3cnccc3o2)cc1)c1ccccc1F | Ubiquitin carboxyl-terminal hydrolase 28 (Homo sapiens) (UniProt Q96RU2) | active
O=C(Nc1ncc2c(n1)-c1ccccc1CC2)C1CC1 | Ubiquitin carboxyl-terminal hydrolase 28 (Homo sapiens) (UniProt Q96RU2) | active
COc1ccc(OC)c(NC(=O)Cn2c(=O)n(CC3CCC(C(=O)NCCc4ccccc4)CC3)c(=O)c3ccccc32)c1 (centres undefined) | Ubiquitin carboxyl-terminal hydrolase 28 (Homo sapiens) (UniProt Q96RU2) | active
Cc1cc(C(=O)Nc2ccc3c(c2)OCCO3)no1 | Ubiquitin carboxyl-terminal hydrolase 28 (Homo sapiens) (UniProt Q96RU2) | active
CC(C)=CCC/C(C)=C/Cc1c(O)cc2c(c1O)C(=O)OC2 | Ubiquitin carboxyl-terminal hydrolase 28 (Homo sapiens) (UniProt Q96RU2) | active
Cn1c(=O)c2cc(C(=O)Nc3ccc(F)cc3)cnc2n(C)c1=O | Ubiquitin carboxyl-terminal hydrolase 28 (Homo sapiens) (UniProt Q96RU2) | active

For C=C(NC(=O)C(=C)NC(=O)c1csc(C2=N[C@@H]3c4csc(n4)[C@H]4NC(=O)c5csc(n5)[C@H]([C@](C)(O)[C@@H](C)O)NC(=O)C5CSC(=N5)/C(=C/C)NC(=O)C([C@@H](C)O)NC(=O)c5csc(n5)[C@]3(CC2)NC(=O)[C@H](C)NC(=O)C(=C)NC(=O)[C@H](C)NC(=O)C([C@@H](C)CC)NC2C=Cc3c(C(C)O)cc(nc3[C@H]2O)C(=O)OC4C)n1)C(N)=O (some centres undefined) , which call appears in the assay record?
inactive

Assay outcome for COc1cccc(NC(=O)c2nnn(-c3ccccc3)n2)c1 : what was it?
active

Recorded call for Cc1cc(N2CCN(c3ncccn3)CC2)nc2ccc(NC(=O)c3ccncc3)cc12 ?
active

Record request — test call for Cc1ccc(C(=O)Nc2ccc3nccnc3c2)cc1
active

// data source = PubChem BioAssay AID1645866
